assay: NCI Yeast Anticancer Drug Screen. Data for the rad50EPP+ strain (AID 151);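 note: 0% = growth of vehicle-treated control cultures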; details: S. cerevisiae rad50 mutant strain, at 1.2 µM, hits give high values
Compounds without any hit were thinned out: in the full panel of roughly 79,000, 15% have a hit.
The following compounds are listed with their measured growth inhibition values.
# output: bare number, implied unit %

compound: CC(C(=O)N1C(=O)N(C(=O)C(C)C(O)c2ccccc2)C2CCCCC21)C(O)c1ccccc1 (configuration not stated)
recorded.result: 0

Asked: Need growth inhibition of `COC(=O)/C(C#N)=C\NC(=S)C(N)=S` , thanks.
Given back: -24

Asked: Also `O=[N+]([O-])c1cc[n+]([O-])c(Cl)c1` , if possible.
Given back: 8

Asked: Also `CC1(C2CC2)C(C#N)(C#N)C1(C#N)C#N` , if possible.
Given back: -1

Asked: Also `Cc1cc(Cl)ccc1NC(=O)/C(Cl)=C(/Cl)C(=O)O` , if possible.
Given back: 5

Asked: Also COC(=O)C(Cc1c[nH]c2ccccc12)N1CN(C)c2ccccc2C1=O (configuration not stated) , if possible.
Given back: 9

Asked: Also `O/N=c1/ccn(O)c2ccccc12` , if possible.
Given back: 87

Asked: Also `O=c1c2ccccc2nc(-c2cccc([N+](=O)[O-])c2)n1O` , if possible.
Given back: -9
